Source of measurements: ChEMBL document CHEMBL1201862

As shown below, each of these molecules has a reported GI50 value.
Tested on: RPMI-8226
assay.summary: NCI tumour cell line growth inhibition, 48 h
The source made the active and inactive calls. Rule as the data show it: active = GI50 up to about 1.1 µM and inactive = higher. Where a SMILES comes first, the peptide text is derived from it. [ ]: non-standard residue; d: D form. The star is where a group is joined. ξ: configuration not given here. ξF = NC(Cc1ccccc1)C(=O)O; Cbz = O=C(OCc1ccccc1)*; Aib = CC(C)(N)C(=O)O
property.measured: GI50

- molecule: "O=C(CCCN1CCC2(CC1)/C(=N/C1CCCCC1)NC(=O)N2c1ccccc1)c1ccc(F)cc1"
  property.measured: "GI50"
  result: "20.9 µM (inactive)"
- molecule: "COC(=O)C(C)(C)NC(=O)C(Cc1ccccc1)NC(=O)C(C)(C)NC(=O)OCc1ccccc1 (stereo unspecified) (Cbz-[Aib]-[ξF]-[Aib]-OMe)"
  property.measured: "GI50"
  result: "> 100 µM (inactive)"
- molecule: "Cc1ccccc1N/C(N)=N/C#N"
  property.measured: "GI50"
  result: "> 100 µM (inactive)"
- molecule: "NCCc1nc(-c2nc(C(=O)O)cs2)cs1"
  property.measured: "GI50"
  result: "> 100 µM (inactive)"
- molecule: "CCC(=O)ONC(=O)Cn1ccc([N+](=O)[O-])n1"
  property.measured: "GI50"
  result: "> 100 µM (inactive)"
- molecule: "O=C1N=C(Nc2ccccc2Cl)N/C1=C\\c1ccc(Cl)cc1Cl"
  property.measured: "GI50"
  result: "> 100 µM (inactive)"
- molecule: "O=NN(CCF)C(=O)NC1CCSCC1"
  property.measured: "GI50"
  result: "> 100 µM (inactive)"
- molecule: "NC(=O)OCC1=C(COC(N)=O)C(=O)c2c(O)ccc(O)c2C1=O"
  property.measured: "GI50"
  result: "> 100 µM (inactive)"
- molecule: "COC(=O)C1=C2CCC(=O)[C@@]2(C)C(OC(C)=O)C=CC1 (stereo partly specified)"
  property.measured: "GI50"
  result: "34.6 µM (inactive)"
- molecule: "CCCCC/C=C\\C=C1\\C(=O)C=C[C@@H]1C/C=C\\CCCC(=O)O"
  property.measured: "GI50"
  result: "1.38 µM (inactive)"
- molecule: "CC1C=CC(=O)C(n2cc(F)c(=O)[nH]c2=O)O1 (stereo unspecified)"
  property.measured: "GI50"
  result: "14.4 µM (inactive)"

* * *

As shown below, each of these compounds has a reported GI50 value.
Tested on: EKVX
assay.summary: NCI tumour cell line growth inhibition, 48 h
Active and inactive are the calls of the source. No stated cut-off is given here; in the data, active = GI50 up to about 1.1 µM and inactive = higher.

- compound: "C/C=C/[C@@H](C(=O)OC)N1C(=O)c2ccccc2[C@H]1O"
  target.or.system: "EKVX"
  GI50: "> 100 µM (inactive)"
- compound: "COc1ccn(CC(=O)c2cc3ccccc3[nH]2)c(=O)n1"
  target.or.system: "EKVX"
  GI50: "> 100 µM (inactive)"
- compound: "[N-]=[N+]=NCc1nc(N)c2c3c(sc2n1)CCCC3"
  target.or.system: "EKVX"
  GI50: "2.1 µM (inactive)"
- compound: "COc1ccc(NC(=O)CC(=O)n2nc(C)c(/N=N/c3ccccc3C(=O)O)c2C)cc1"
  target.or.system: "EKVX"
  GI50: "> 100 µM (inactive)"
- compound: "C[C@H](Nc1nc(N)c(N=O)c(=O)n1C)C(=O)O"
  target.or.system: "EKVX"
  GI50: "> 10 µM (inactive)"
- compound: "Nc1nc2c(ncn2C2OC(CO)C(O)C2O)c(=O)o1 (stereo not given)"
  target.or.system: "EKVX"
  GI50: "> 100 µM (inactive)"
- compound: "Cc1ccccc1N(C)S(=O)(=O)c1ccccc1[N+](=O)[O-]"
  target.or.system: "EKVX"
  GI50: "32.2 µM (inactive)"
- compound: "O=C(O)c1nn(-c2ccccc2)nc1-c1nn(-c2ccccc2)nc1C(=O)O"
  target.or.system: "EKVX"
  GI50: "> 100 µM (inactive)"
- compound: "COC1=C(NC(C)=O)C(=O)c2nc3n(c2C1=O)CCC3"
  target.or.system: "EKVX"
  GI50: "19.5 µM (inactive)"
- compound: "Cc1ccc(C2=C(c3ccccc3)C(Br)(c3ccc(C)cc3)C(c3ccccc3)=C2c2ccc(C)cc2)cc1"
  target.or.system: "EKVX"
  GI50: "> 100 µM (inactive)"
- compound: "CC(=O)OC(C)(C)C[N+](=O)[O-]"
  target.or.system: "EKVX"
  GI50: "> 100 µM (inactive)"
- compound: "CC(=O)O[C@H]1C[C@H](O[C@H]2[C@@H](O)C[C@H](O[C@H]3[C@@H](O)C[C@H](O[C@H]4CC[C@@]5(C)[C@H](CC[C@@H]6[C@@H]5CC[C@]5(C)[C@@H](C7=CC(=O)OC7)CC[C@]65O)C4)O[C@@H]3C)O[C@@H]2C)O[C@H](C)[C@H]1O[C@@H]1O[C@H](CO)[C@@H](O)[C@H](O)[C@H]1O"
  target.or.system: "EKVX"
  GI50: "< 0.0148 µM (active)"
- compound: "[O-][n+]1ccccc1S [PYRITHIONE ZINC]"
  target.or.system: "EKVX"
  GI50: "2.98 µM (inactive)"
- compound: "Cn1nc(-c2ccccc2)c(N=[N+]=[N-])cc1=O"
  target.or.system: "EKVX"
  GI50: "> 100 µM (inactive)"
- compound: "O=C(NCCCCCCCCNC(=O)c1cnc2ccccc2n1)c1cnc2ccccc2n1"
  target.or.system: "EKVX"
  GI50: "> 100 µM (inactive)"
- compound: "O=S(=O)(c1ccc(Br)cc1)n1c2ccc(Br)cc2c2nc3ccccc3nc21"
  target.or.system: "EKVX"
  GI50: "> 100 µM (inactive)"
- compound: "C/C=C1\\CN(C(=O)OC(C)(C)C)C1C(=O)OC(C)(C)C (stereo not given)"
  target.or.system: "EKVX"
  GI50: "> 100 µM (inactive)"
- compound: "CC1=C2CC(C)(C)CC(=O)C2(C)CCC1=O (stereo not given)"
  target.or.system: "EKVX"
  GI50: "> 100 µM (inactive)"
- compound: "Cc1nc(Nc2ccc(Cl)cc2)sc1C(=O)NNC(=S)NN"
  target.or.system: "EKVX"
  GI50: "16.9 µM (inactive)"
- compound: "COc1ccc2c(c1)CCCc1c-2nc2ccccc2c1N"
  target.or.system: "EKVX"
  GI50: "6.28 µM (inactive)"
